- Test method notes: Oral bioavailability of hydrocodone conjugates in rats, LC/MS/MS
- Run conditions: male, Sprague-Dawley, rat, plasma, po, 25 mg/kg

Molecule	Cmax [ng/mL]
COc1ccc2c3c1O[C@H]1C(=O)CC[C@H]4[C@@H](C2)N(C)CC[C@]314 [Hydrocodone, reference compound]	409

---

Each record here notes measured Percent Decrease 1 mg/kg vs. 5 mg/kg Cmax.
- Test method notes: Oral bioavailability of hydrocodone conjugates in rats, LC/MS/MS
- Run conditions: oral bioavailability
Where a SMILES comes first, the peptide text is derived from it. The star is where a group is joined. X1 = COc1ccc2c3c1O[C@H]1C(O*)=CC[C@H]4[C@@H](C2)N(C)CC[C@]314
Measure: Percent Decrease 1 mg/kg vs. 5 mg/kg Cmax (%)

Molecule	Value observed
CC[C@H](C)[C@H](NC(=O)[C@H](Cc1ccccc1)NC(=O)[C@H](Cc1ccccc1)NC(=O)[C@H](Cc1ccc(O)cc1)NC(=O)[C@@H](N)Cc1ccc(O)cc1)C(=O)OC1=CC[C@H]2[C@H]3Cc4ccc(OC)c5c4[C@@]2(CCN3C)[C@H]1O5 [YYFFI[SEQ ID NO: 8]-HC] (H-YYFFI-X1)	23
CC[C@H](C)[C@H](NC(=O)[C@H](Cc1ccc(O)cc1)NC(=O)[C@@H](N)Cc1ccc(O)cc1)C(=O)OC1=CC[C@H]2[C@H]3Cc4ccc(OC)c5c4[C@@]2(CCN3C)[C@H]1O5 [YYI-HC, Tyr-Tyr-Ile-Hydrocodone]	60
CC[C@H](C)[C@H](NC(=O)[C@H](Cc1ccccc1)NC(=O)[C@H](Cc1ccccc1)NC(=O)[C@H](CCC(=O)O)NC(=O)[C@@H](N)CCC(=O)O)C(=O)OC1=CC[C@H]2[C@H]3Cc4ccc(OC)c5c4[C@@]2(CCN3C)[C@H]1O5 [EEFFI[SEQ ID NO: 5]-HC] (H-EEFFI-X1)	65
CC[C@H](C)[C@H](NC(=O)[C@H](CC(=O)O)NC(=O)[C@@H](N)CC(=O)O)C(=O)OC1=CC[C@H]2[C@H]3Cc4ccc(OC)c5c4[C@@]2(CCN3C)[C@H]1O5 [DDI-HC, Asp-Asp-Ile-Hydrocodone]	9
